- measured-target: hAM1R (human, UniProt Q16602)
- protocol-text: cell-based or functional assay
Numbered stars: 1 amine (or outer) side, 2 acyl side, 3 side chain; on linkers, the order of the positions; unused ones are H or OH. Bridge positions count the residues as written; N and C are the ends. Square brackets hold non-standard residues; d marks the D form. Ends that are not written are not given here. * marks the point of attachment. C20 diacid = O=C(O)CCCCCCCCCCCCCCCCCCC(=O)*; γGlu = O=C(O)[C@H](CCC(=O)[*:2])N[*:1]; Hyp = O=C(O)[C@@H]1C[C@@H](O)CN1; Trx = NC[C@H]1CC[C@H](C(=O)O)CC1; Cit = NC(=O)NCCC[C@H](N)C(=O)O; AEEA = NCCOCCOCC(=O)O
Assignment: determine reported hAM1R EC50 (cAMP) for the given binders.

binder	hAM1R EC50 (cAMP)
{C20 diacid-γGlu}-KCNTATCTVQRLAHQIAQFTDKNKDNVAPPTNVGSNG[Hyp]-NH2 (disulfide 2-7 (inferred); not fully specified; ends not checked) [SEQ ID NO: 87]	> 5 µM

Dear colleague, could you send me hAM1R EC50 (cAMP) for each of the items below? Thanks.
1. {C20 diacid-γGlu}-KCNTATCTVQRLAEQIYQFTDKDKDNVAPPTQVGSNG[Hyp]-NH2 (disulfide 2-7 (inferred); not fully specified; ends not checked) [SEQ ID NO: 73]
2. KCNTSTCTVAWLADQITQFSDKDKANVSPPTEVGPNS[Hyp]-NH2 (disulfide 2-7 (inferred); ends not checked) [SEQ ID NO: 310]
3. GCRTGTCTVQWLAHQIYQFTDKDKDNVAPRSNVGPQGY [SEQ ID NO: 346]
4. GCRTGTCTVQ[Cit]LAHQIYQFTDKDKDNVAPRTNVGPNGY-NH2 (disulfide 2-7 (inferred); ends not checked) [SEQ ID NO: 269]
5. GCRFGTCTVQRLAHQIYQFTDKDKDNVAPRSNVSPQGY [SEQ ID NO: 131]
6. GCRFGTCTVQRLAHQIYQFTDKDKDNVAPRTNIGPQG[Hyp]-NH2 (disulfide 2-7 (inferred); ends not checked) [SEQ ID NO: 46]
7. {C20 diacid-Trx-γGlu-AEEA-AEEA}-KCNTATCTVQRLAEQIYQFTDKDKDNVAPPTNVGSNG[Hyp]-NH2 (disulfide 2-7 (inferred); ends not checked) [SEQ ID NO: 126]
8. GCRTGTCTVQRLAHQIYQFTDKDKDNVAPRTKVGPQGY [SEQ ID NO: 156]

Given back:
1. > 5 µM
2. > 5 µM
3. > 5 µM
4. > 5 µM
5. 0.0338 µM
6. 0.0785 µM
7. > 5 µM
8. 2.98 µM
